Source: patent US20250368649A1

test_system: KRas G12V (Homo sapiens, UniProt P01116, G12V)
Sequence (P01116 1-169 isoform P01116-2 G12V): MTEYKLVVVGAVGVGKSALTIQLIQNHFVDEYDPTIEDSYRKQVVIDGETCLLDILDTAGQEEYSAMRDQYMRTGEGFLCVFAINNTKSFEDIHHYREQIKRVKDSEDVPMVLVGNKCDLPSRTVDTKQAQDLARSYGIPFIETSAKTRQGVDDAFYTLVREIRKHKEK
assay_name: biochemical
measurement_setup: Binding to KRas (IC50 nM) G12V, TR-FRET displacement, KRas G12V
Field: IC50. Provide a value for each of the compounds that follow.

Prompt: Using the record for CCc1c(F)ccc2cc(O)cc(N3CCc4c(nc(OC[C@@]56CCCN5C[C@H](F)C6)nc4N4CCCCn5nc(C(=O)N(C)C)c(Cl)c5C4)C3)c12 [Example 589] , report its IC50.
Response: < 2 nM

Prompt: CCc1c(F)ccc2cc(O)cc(N3CCc4c(nc(OC[C@@]56CCCN5C[C@H](F)C6)nc4N4CCCn5nc(C(=O)N6CC7CCC(C6)N7)cc5C4)C3)c12 [Example 265] ?
Response: < 2 nM

Prompt: CCc1c(F)ccc2cc(O)cc(N3CCc4c(nc(OC[C@@]56CCCN5C[C@H](F)C6)nc4N4CCCn5nc(C(=O)NC6CCC6)cc5C4)C3)c12 [Example 378] ?
Response: < 2 nM
